# credit: PubChem BioAssay (NCI)

Please provide measured growth inhibition for the entries that follow.
ASSAY_NOTES: NCI Yeast Anticancer Drug Screen. Data for the rad50 strain (AID 155);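 also: 0% = growth of vehicle-only cultures of the same strain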
TEST_CONTEXT: S. cerevisiae rad50 strain growth inhibition; at 50.0 µM; active compounds read high
The panel holds about 79,000 compounds, 15% with a hit somewhere; the sample as a whole holds those more often.
Answers are plain numbers, in %.

Worked set:
COMPOUND: CC(C)=CCCC(=O)C(c1nc2n(c1O)C(=N)N=N2)c1nc2n(c1O)C(=N)N=N2 (stereo unspecified)
DISPLAY_UNIT: %
RECORDED_RESULT: 12.1
--
COMPOUND: COC(=O)C(Br)C(Br)c1ccc(OC)c(OC)c1 (stereo unspecified)
DISPLAY_UNIT: %
RECORDED_RESULT: -5.15

I need growth inhibition for every entry listed below, if you could help.
1. COc1ccc2c(c1)c1ccc3c(c1n2C)C(=O)C=CC3=O
2. Fc1ccc2c(c1)CC(CBr)O2 (stereo unspecified)

Reply text:
1: 8.4; 2: -14.2

I need growth inhibition for every entry listed below, if you could help.
1. COc1cc2nc(C(O)C(O)c3nc4cc(OC)c(OC)cc4[nH]3)[nH]c2cc1OC (stereo unspecified)
2. CCCCCCCCCC1OCCC(C)O1 (stereo unspecified)
3. Cn1c(=O)nc(N)n(NC(=O)CCl)c1=O
4. COc1ccccc1NC(=O)CC(=O)N1N=C(C)C(N=Nc2ccc(S(N)(=O)=O)cc2)C1=O (stereo unspecified)
5. Cn1cc(C2(C)CC(C)(C)c3c2n(C)c2ccccc32)c2ccccc21 (stereo unspecified)
6. O=C1CSC(c2cccc(Cl)c2)N1c1ccc(-n2c(-c3ccccc3)nc3ccccc3c2=O)cc1 (stereo unspecified)
7. CCOC(=O)/C(C(C)=O)=C1\C(=O)c2ccccc2-c2ccccc21

Reply text:
-8
20.2
30.6
13.3
0.3
-4.3
21.6

* * *

ASSAY_NOTES: NCI Yeast Anticancer Drug Screen. Data for the rad50 strain (AID 155);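 also: 0% = growth of vehicle-only cultures of the same strain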
TEST_CONTEXT: S. cerevisiae rad50 strain growth inhibition; at 50.0 µM; active compounds read high
Compounds without any hit were thinned out: in the full panel of roughly 79,000, 15% have a hit.
ENDPOINT_NAME: growth inhibition (%)
Give bare numbers, in %.

Worked set:
MOLECULE: COc1cc(CCC(C)=O)ccc1OC(=O)c1c(-c2c(F)cccc2Cl)noc1C
growth inhibition (%): 1.85
//
MOLECULE: Cc1ccc(NC(=O)Nc2cccc(Cl)c2C)cc1C
growth inhibition (%): 3.75
//
MOLECULE: Cn1c(=O)c2ccccc2[n+]2c(-c3cccc([N+](=O)[O-])c3)csc12
growth inhibition (%): -3.9
//
MOLECULE: COC(=O)C=Cc1ccc2nncnc2c1 (mixture of isomers)
growth inhibition (%): 24.1
//
MOLECULE: COc1ccc2c(c1)CC1(CC2)CCN(CCCN(C)C)CC1
growth inhibition (%): -32.3

What the record says about CCCOC(=O)Nc1cccc(C)c1 : growth inhibition is 17.7

* * *

ASSAY_NOTES: NCI Yeast Anticancer Drug Screen. Data for the mlh1 rad18 strain (AID 175)
TEST_CONTEXT: S. cerevisiae mlh1 rad18 strain growth inhibition; at 50.0 µM; active compounds read high
Compounds without any hit were thinned out: in the full panel of roughly 79,000, 15% have a hit.
ENDPOINT_NAME: growth inhibition (%)
One number for each entry, in %.

COMPOUND: COc1cc(C(=O)N2CCCCCCC2)cc(OC)c1OC
ENDPOINT_NAME: growth inhibition
RECORDED_RESULT: -6.45
//
COMPOUND: COc1cc2c(cc1OC)[C@H]1C(COC(=O)c3ccccc3)CSC(=Nc3ccccc3)N1CC2 (stereo partly specified)
ENDPOINT_NAME: growth inhibition
RECORDED_RESULT: 22.3
//
COMPOUND: CCCCCOC(=O)OC(C)CNC(=O)C(C)OC(=O)OCCCCC (stereo unspecified)
ENDPOINT_NAME: growth inhibition
RECORDED_RESULT: -29.4
//
COMPOUND: C=C1C(O)CCC2(C)C1CCC1C2CCC2(C)C(C(C)CCCC(C)C)CCC12 (stereo unspecified)
ENDPOINT_NAME: growth inhibition
RECORDED_RESULT: -2.45
//
COMPOUND: CCCCNc1ccc([N+](=O)[O-])cc1[N+](=O)[O-]
ENDPOINT_NAME: growth inhibition
RECORDED_RESULT: -0.6

Now let's try a different one.
What the record says about O=Cc1cccc(OC(=O)Nc2ccccc2)c1 : growth inhibition is 0.95
